TARGET_ENTITY: K-Ras G12C (Homo sapiens (Human), UniProt P01116, G12C)
Sequence (P01116 other isoform, or with tags, fused parts or gaps G12C): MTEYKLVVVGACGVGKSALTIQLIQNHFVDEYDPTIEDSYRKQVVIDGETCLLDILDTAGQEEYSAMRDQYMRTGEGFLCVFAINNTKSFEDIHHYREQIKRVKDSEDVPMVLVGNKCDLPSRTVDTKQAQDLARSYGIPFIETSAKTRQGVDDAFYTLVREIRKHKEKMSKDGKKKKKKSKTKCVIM
RUN_DESCRIPTION: Western blot assay for in cell alkylation of K-Ras G12C (HCC1171 cells)
CONDITION_DETAILS: 18 hours at 37° C., 7 point dose response
Doc: threshold 60 nM (exclusive). Items with EC50 beneath it return met; others return not met.

Examples from the recorded data:
INSERT INTO results (compound, cat) VALUES
  ('C=CC(=O)N1CCN(c2nc(OC[C@@H]3CCCN3)nc3c(F)c(-c4nc(N)cc(C)c4C(F)(F)F)c(Cl)cc23)[C@@H](C)C1 [Example 93]', 'not met'),
  ('C=CC(=O)N1CCN(c2nc(OC[C@@H]3CCCN3CCOC)nc3cc(-c4nc(N)ccc4C(F)(F)F)c(Cl)cc23)CC1 [Example 91]', 'met');

Query string: Quick check: does C=CC(=O)N1CCN(c2ncnc3cc(-c4nc(NC(C)=O)ccc4C)c(Cl)cc23)CC1 [Example 16] have EC50 under 60 nM?
Result string: not met

Query string: State whether 60 nM exceeds EC50 recorded for C=CC(=O)N1CCN(c2ncnc3cc(-c4nc(N)ccc4C(F)(F)F)c(N4CCC4)cc23)CC1 [Example 20] .
Result string: not met

Query string: Item C=CC(=O)N1CCN(c2nc(NC[C@@H](F)C(C)(C)O)nc3cc(-c4nc(N)cc(C)c4F)c(Cl)cc23)CC1 [Example 12] : EC50 beneath 60 nM, strictly?
Result string: not met

Query string: Identify whether the compound C=CC(=O)N1CCN(c2nc(OC[C@@H]3[C@H]4C[C@H]4CN3C)nc3cc(-c4nc(N)ccc4C(F)(F)F)c(Cl)cc23)CC1 [Example 78a] records EC50 below 60 nM.
Result string: met

Query string: State whether 60 nM exceeds EC50 recorded for C=CC(=O)N1CCN(c2nc(OC[C@@H]3CCC4(CC4)N3C)nc3cc(-c4nc(N)ccc4C(F)(F)F)c(Cl)cc23)CC1 [Example 72] .
Result string: met
